- measurement protocol: cells
- experimental setup: Homo sapiens, U-87 MG, 72 h
measure name: IC50 (nM)
Please state the figure in nM; there is no need to write the unit.

IN: Given COc1cc2c(Oc3ccc(NC(=O)N/N=C/c4ccc(F)cc4F)cc3F)ccnc2cc1OCCCN1CCC(C)CC1 , state its recorded IC50.
OUT: 9.7

IN: Further, for COc1cc2c(Oc3ccc(NC(=O)N/N=C/c4ccc(Cl)cc4)cc3F)ccnc2cc1OCCCN1CCCCC1 ?
OUT: 24

IN: Further, for COc1cc2c(Oc3ccc(NC(=O)N/N=C/c4ccc(F)cc4F)cc3F)ccnc2cc1OCCCN1CCCCC1 ?
OUT: 18

* * *

Reported pIC50 values for the following compounds.
- Tested on: HT-29
- measurement protocol: cells
- experimental setup: Homo sapiens, HT-29, 72 h
Formally, pIC50 is defined as -log10 of the concentration c, with c in mol/L.

Here are 3 compounds together with their reported answers.
>>> print(df.to_string())
                                   molecule  observed_result
0  COc1cc2c(Oc3ccc(NC(=O)N/N=C/c4cccnc4)cc3F)ccnc2cc1OCCCN1CCCCC1             6.49
1  COc1cc2c(Oc3ccc(NC(=O)N/N=C/c4ccc(Cl)cc4)cc3F)ccnc2cc1OCCCN1CCC(C)CC1             6.85
2  COc1cc2c(Oc3ccc(NC(=O)N/N=C/c4ccccc4C(F)(F)F)cc3F)ccnc2cc1OCCCN1CCCCC1             6.80

Please find the next compound below.
IN: Given COc1cc2c(Oc3ccc(NC(=O)N/N=C/c4ccc(OC(F)(F)F)cc4)cc3F)ccnc2cc1OCCCN1CCOCC1 , state its recorded pIC50.
OUT: 5.85

* * *

- System: MDA-MB-231
- measurement protocol: Cytotoxicity against human MDA-MB-231 cells after 72 hrs by MTT assay
- Format: functional, cell-based
- experimental setup: MDA-MB-231, 72 h
Reported pIC50 values for the following molecules.
Formally, pIC50 is defined as -log10 of the concentration c, with c in mol/L.

IN: Given COc1cc2c(Oc3ccc(NC(=O)N/N=C/c4ccccc4F)cc3F)ccnc2cc1OCCCN1CCC(C)CC1 , state its recorded pIC50.
OUT: 6.06

IN: Further, for COc1cc2c(Oc3ccc(NC(=O)N/N=C/c4c(C)cc(C)cc4C)cc3F)ccnc2cc1OCCCN1CCCCC1 ?
OUT: 5.96

IN: Further, for COc1cc2c(Oc3ccc(NC(=O)N/N=C/c4ccc(Cl)cc4)cc3F)ccnc2cc1OCCCN1CCC(C)CC1 ?
OUT: 5.92

IN: Further, for COc1cc2c(Oc3ccc(NC(=O)N/N=C/c4ccco4)cc3F)ccnc2cc1OCCCN1CCCCC1 ?
OUT: 6.04

* * *

- target desc: Vascular endothelial growth factor receptor 2 (Homo sapiens)
- Sequence (P35968 whole entry): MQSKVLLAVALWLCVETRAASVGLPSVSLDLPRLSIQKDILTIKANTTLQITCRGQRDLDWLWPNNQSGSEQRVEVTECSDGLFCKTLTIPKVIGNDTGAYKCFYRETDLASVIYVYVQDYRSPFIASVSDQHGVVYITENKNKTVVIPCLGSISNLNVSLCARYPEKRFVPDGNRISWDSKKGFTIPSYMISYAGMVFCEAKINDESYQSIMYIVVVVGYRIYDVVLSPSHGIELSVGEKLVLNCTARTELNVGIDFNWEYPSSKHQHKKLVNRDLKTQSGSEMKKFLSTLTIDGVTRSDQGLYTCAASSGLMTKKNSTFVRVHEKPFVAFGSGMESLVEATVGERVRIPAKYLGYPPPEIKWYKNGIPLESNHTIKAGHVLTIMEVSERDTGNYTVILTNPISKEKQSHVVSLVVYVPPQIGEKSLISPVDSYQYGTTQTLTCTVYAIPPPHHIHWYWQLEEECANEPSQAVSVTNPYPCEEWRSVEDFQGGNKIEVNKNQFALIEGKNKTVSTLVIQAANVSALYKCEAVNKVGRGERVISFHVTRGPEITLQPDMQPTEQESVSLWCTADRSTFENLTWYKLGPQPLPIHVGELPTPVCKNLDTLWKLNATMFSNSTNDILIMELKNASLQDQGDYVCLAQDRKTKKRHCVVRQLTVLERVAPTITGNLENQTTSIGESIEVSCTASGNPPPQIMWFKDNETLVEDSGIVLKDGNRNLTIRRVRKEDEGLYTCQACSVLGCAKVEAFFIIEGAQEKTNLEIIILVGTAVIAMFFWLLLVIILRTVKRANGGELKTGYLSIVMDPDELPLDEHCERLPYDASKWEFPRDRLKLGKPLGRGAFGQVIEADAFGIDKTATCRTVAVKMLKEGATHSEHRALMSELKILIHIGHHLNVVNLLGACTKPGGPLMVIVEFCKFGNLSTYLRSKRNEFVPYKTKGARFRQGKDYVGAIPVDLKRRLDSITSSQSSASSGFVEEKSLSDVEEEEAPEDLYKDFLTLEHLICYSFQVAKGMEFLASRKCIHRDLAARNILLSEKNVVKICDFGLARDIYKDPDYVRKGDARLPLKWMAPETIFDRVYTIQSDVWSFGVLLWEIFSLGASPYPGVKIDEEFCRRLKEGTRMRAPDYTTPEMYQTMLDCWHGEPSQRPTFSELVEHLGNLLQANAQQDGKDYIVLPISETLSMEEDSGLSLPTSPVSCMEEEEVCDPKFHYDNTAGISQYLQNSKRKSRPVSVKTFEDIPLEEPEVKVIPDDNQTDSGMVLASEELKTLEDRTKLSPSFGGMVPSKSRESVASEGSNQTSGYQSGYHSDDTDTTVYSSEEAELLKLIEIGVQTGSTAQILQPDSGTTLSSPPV
measure name: pIC50
Formally, pIC50 is defined as -log10 of the concentration c, with c in mol/L.

IN: Given COc1cc2c(Oc3ccc(NC(=O)N/N=C/c4ccc(F)cc4F)cc3F)ccnc2cc1OCCCN1CCC(C)CC1 , state its recorded pIC50.
OUT: 6.16

* * *

- Tested on: SMMC-7721
- measurement protocol: cells
- experimental setup: Homo sapiens, SMMC-7721, 72 h
measure name: IC50

Here are 3 molecules together with their reported answers.
                                   molecule  measure_name  observed_result
0  COc1cc2c(Oc3ccc(NC(=O)N/N=C/c4ccc(F)cc4F)cc3F)ccnc2cc1OCCCN1CCC(C)CC1          IC50           290 nM
1  COc1cc2c(Oc3ccc(NC(=O)N/N=C/c4ccc(Cl)cc4)cc3F)ccnc2cc1OCCCN1CCCCC1          IC50           410 nM
2  COc1cc2c(Oc3ccc(NC(=O)N/N=C/c4ccc(F)cc4F)cc3F)ccnc2cc1OCCCN1CCCCC1          IC50           300 nM

Please find the next molecule below.
IN: Given COc1cc2c(Oc3ccc(NC(=O)N/N=C/c4ccc(F)cc4)cc3F)ccnc2cc1OCCCN1CCCCC1 , state its recorded IC50.
OUT: 330 nM

* * *

Reported IC50 values for the following molecules.
- Tested on: A549
- measurement protocol: Cytotoxicity against human A549 cells after 72 hrs by MTT assay
- Assay type: functional, cell-based
- experimental setup: A549, 72 h
Please state the figure in nM; there is no need to write the unit.

>>> df
                                   molecule  observed_result
0  COc1cc2c(Oc3ccc(NC(=S)N/N=C/c4ccco4)cc3F)ccnc2cc1OCCCN1CCCCC1              470
1  COc1cc2c(Oc3ccc(NC(=O)N/N=C/c4ccccc4C#N)cc3F)ccnc2cc1OCCCN1CCCCC1              190
2  COc1cc2c(Oc3ccc(NC(=O)N/N=C/c4ccc(F)c(F)c4)cc3F)ccnc2cc1OCCCN1CCCCC1              270
3  COc1cc2c(Oc3ccc(NC(=O)N/N=C/c4ccccc4)cc3F)ccnc2cc1OCCCN1CCC(C)CC1              300

IN: Checklist item: IC50 tested on A549, entry COc1cc2c(Oc3ccc(NC(=O)N/N=C/c4cccnc4)cc3F)ccnc2cc1OCCCN1CCCCC1 , value?
OUT: 460

IN: Further, for COc1cc2c(Oc3ccc(NC(=O)N/N=C/c4ccc(Cl)cc4)cc3F)ccnc2cc1OCCCN1CCC(C)CC1 ?
OUT: 170

IN: Further, for COc1cc2c(Oc3ccc(NC(=O)N/N=C/c4c(C)cc(C)cc4C)cc3F)ccnc2cc1OCCCN1CCCCC1 ?
OUT: 1900

IN: Further, for COc1cc2c(Oc3ccc(NC(=O)N/N=C/c4ccccc4)cc3F)ccnc2cc1OCCCN1CCCCC1 ?
OUT: 160

* * *

- Tested on: NCI-H460
- measurement protocol: cells
- experimental setup: Homo sapiens, NCI-H460, 72 h
Reported pIC50 values for the following molecules.
Formally, pIC50 is defined as -log10 of the concentration c, with c in mol/L.

Here are 3 molecules together with their reported answers.
                                   molecule  observed_result
0  COc1cc2c(Oc3ccc(NC(=O)N/N=C/c4ccc(F)cc4F)cc3F)ccnc2cc1OCCCN1CCCCC1             7.11
1  COc1cc2c(Oc3ccc(NC(=O)N/N=C/c4ccc(F)cc4F)cc3F)ccnc2cc1OCCCN1CCC(C)CC1             7.24
2  COc1cc2c(Oc3ccc(NC(=O)N/N=C/c4ccc(Cl)cc4)cc3F)ccnc2cc1OCCCN1CCCCC1             7.20

Please find the next molecule below.
IN: Checklist item: pIC50 tested on NCI-H460, entry COc1cc2c(Oc3ccc(NC(=O)N/N=C/c4ccc(F)cc4)cc3F)ccnc2cc1OCCCN1CCCCC1 , value?
OUT: 7.16

* * *

Reported pIC50 values for the following molecules.
- Test system: MDA-MB-231
- measurement protocol: Cytotoxicity against human MDA-MB-231 cells after 72 hrs by MTT assay
- Format: functional, cell-based
- experimental setup: MDA-MB-231, 72 h
Formally, pIC50 is defined as -log10 of the concentration c, with c in mol/L.

                                   molecule  observed_result
0  CC/C(=N\NC(=O)Nc1ccc(Oc2ccnc3cc(OCCCN4CCCCC4)c(OC)cc23)c(F)c1)c1ccccc1             5.96

IN: Checklist item: pIC50 tested on MDA-MB-231, entry COc1cc2c(Oc3ccc(NC(=O)N/N=C/c4ccccc4[N+](=O)[O-])cc3F)ccnc2cc1OCCCN1CCCCC1 , value?
OUT: 6.26

IN: Further, for COc1cc2c(Oc3ccc(NC(=S)N/N=C/c4ccco4)cc3F)ccnc2cc1OCCCN1CCCCC1 ?
OUT: 5.96

IN: Further, for COc1cc2c(Oc3ccc(NC(=O)N/N=C/C(C)C)cc3F)ccnc2cc1OCCCN1CCCCC1 ?
OUT: 5.57

IN: Further, for COc1cc2c(Oc3ccc(NC(=O)N/N=C/c4ccc(F)cc4F)cc3F)ccnc2cc1OCCCN1CCC(C)CC1 ?
OUT: 5.96

IN: Further, for COc1cc2c(Oc3ccc(NC(=O)N/N=C/c4cccnc4)cc3F)ccnc2cc1OCCCN1CCCCC1 ?
OUT: 6.06

IN: Further, for COc1ccc(OC)c(/C=N/NC(=O)Nc2ccc(Oc3ccnc4cc(OCCCN5CCCCC5)c(OC)cc34)c(F)c2)c1 ?
OUT: 5.82

IN: Further, for COc1cc2c(Oc3ccc(NC(=O)N/N=C/c4ccccc4)cc3F)ccnc2cc1OCCCN1CCOCC1 ?
OUT: 5.68

IN: Further, for COc1cccc(/C=N/NC(=O)Nc2ccc(Oc3ccnc4cc(OCCCN5CCCCC5)c(OC)cc34)c(F)c2)c1 ?
OUT: 5.92

IN: Further, for COc1cc2c(Oc3ccc(NC(=O)N/N=C/c4ccc(Cl)cc4)cc3F)ccnc2cc1OCCCN1CCOCC1 ?
OUT: 5.92

IN: Further, for COc1cc2c(Oc3ccc(NC(=O)NNCc4ccc(F)cc4F)cc3F)ccnc2cc1OCCCN1CCC(C)CC1 ?
OUT: 5.89

IN: Further, for COc1cc2c(Oc3ccc(NC(=O)N/N=C/c4ccc(F)cc4)cc3F)ccnc2cc1OCCCN1CCCC1 ?
OUT: 5.89

IN: Further, for C=CCc1cccc(/C=N/NC(=O)CN2CCN(Cc3ccccc3)CC2)c1O [PAC-1] ?
OUT: 5.34

Every entry's value here was drawn from ChEMBL document CHEMBL2417367.
